# system_tested: PXR(130-434)-SRC-1 (Homo sapiens)
# Sequence (O75469 with tags, fused parts or gaps limits assumed): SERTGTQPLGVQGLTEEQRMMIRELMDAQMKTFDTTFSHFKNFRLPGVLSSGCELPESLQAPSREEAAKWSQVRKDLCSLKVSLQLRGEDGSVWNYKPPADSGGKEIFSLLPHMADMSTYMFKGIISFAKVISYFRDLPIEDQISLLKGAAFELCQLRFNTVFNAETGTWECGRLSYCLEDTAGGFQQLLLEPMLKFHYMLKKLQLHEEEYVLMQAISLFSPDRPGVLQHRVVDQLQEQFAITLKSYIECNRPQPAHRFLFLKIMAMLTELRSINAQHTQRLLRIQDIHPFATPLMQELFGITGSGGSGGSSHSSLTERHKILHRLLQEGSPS
quantity_measured: Kd (µM)
One number for each entry, in µM.

Entry ClC1=C(Cl)C2(Cl)C3C(Cl)C(Cl)C(Cl)C3C1(Cl)C2(Cl)Cl (stereo not drawn) [TNC, trans-nonachlor] — recorded Kd = 14.3
